Sourced from ChEMBL document CHEMBL3431459

# TARGET DESC: Carnitine O-palmitoyltransferase 1, liver isoform (Homo sapiens)
# Sequence (P50416 whole entry): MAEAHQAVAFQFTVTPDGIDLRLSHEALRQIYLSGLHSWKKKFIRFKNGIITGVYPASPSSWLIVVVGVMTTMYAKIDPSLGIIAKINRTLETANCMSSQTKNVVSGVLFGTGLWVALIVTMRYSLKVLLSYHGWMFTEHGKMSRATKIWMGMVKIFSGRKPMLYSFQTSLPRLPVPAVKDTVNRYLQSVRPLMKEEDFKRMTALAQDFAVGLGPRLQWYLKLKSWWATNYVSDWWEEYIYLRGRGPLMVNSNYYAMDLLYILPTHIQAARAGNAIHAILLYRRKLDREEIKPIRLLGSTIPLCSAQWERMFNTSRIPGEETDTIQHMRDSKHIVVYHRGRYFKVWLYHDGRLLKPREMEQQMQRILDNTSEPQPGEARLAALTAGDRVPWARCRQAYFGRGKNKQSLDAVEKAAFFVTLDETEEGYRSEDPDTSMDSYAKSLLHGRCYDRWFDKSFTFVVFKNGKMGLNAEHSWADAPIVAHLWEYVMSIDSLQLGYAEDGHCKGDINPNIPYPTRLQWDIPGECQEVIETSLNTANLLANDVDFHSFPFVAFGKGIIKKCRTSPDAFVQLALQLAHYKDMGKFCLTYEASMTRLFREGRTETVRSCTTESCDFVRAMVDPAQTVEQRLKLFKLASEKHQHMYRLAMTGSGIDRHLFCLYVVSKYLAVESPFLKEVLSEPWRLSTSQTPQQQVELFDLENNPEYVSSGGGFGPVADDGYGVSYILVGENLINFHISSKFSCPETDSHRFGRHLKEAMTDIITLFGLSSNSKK
# ASSAY PROTOCOL: SUPPLEMENTARY: Inhibition of Carnitine palmitoyltransferase 1, liver isoform
Please go through the items and note down their pIC50.
When answering, recall that pIC50 equals minus log10 of the concentration in mol/L, and write that number alone.

Using the record for "CS(=O)(=O)Nc1cccc(-c2n[nH]c([C@H]3CCCCN3C(=O)COc3ccccc3)n2)c1" , report its pIC50.
6.84

Which value of pIC50 has been reported for "COc1ccc(Cl)cc1S(=O)(=O)N1CCOc2c(Cl)cc(C(=O)Nc3nc(CC(=O)O)cs3)cc21" in the records?
7.30

Fill in: pIC50 of "O=C([C@H]1CCCCN1C(=O)COc1ccccc1)N1Cc2ccc(O[C@H]3CCOC3)cc2C1" is ___
6.93

----------
# ASSAY PROTOCOL: SUPPLEMENTARY: Lipophilicity (log D) Determination by high-throughput shake-flask
# Assay type: physicochemical
# ASSAY SETUP: octanol/water
Task for the reader: assign each of the following compounds its reported logD.
Answer field: number only, no words.

Entry "O=C(COc1ccccc1)N1CCCC[C@@H]1c1nc(-c2cccc(N3CCCS3(=O)=O)c2)no1" has what logD?
2.82

Sample "Cc1cc(-c2n[nH]c([C@H]3CCCCN3C(=O)COc3ccccc3)n2)n(C)n1" — what was its logD?
2.65

Request the reported logD associated with "COc1ccc(Cl)cc1S(=O)(=O)N1CCOc2ccc(C(=O)Nc3ccn(CC(=O)O)n3)cc21"
1.27

Item under review: "O=C(O)c1cccc(-c2csc([C@H]3CCCCN3C(=O)COc3ccccc3)n2)c1" . Reported logD?
1.06

So what does the record say about logD for "COc1ccc(Cl)cc1CN1C(=O)CSc2ccc(C(=O)Nc3nc(CC(=O)O)cs3)cc21" ?
0.72

Consider the compound CN(C)C(=O)c1ccc(-c2noc(C3C4CC4CN3C(=O)COc3ccccc3)n2)cc1 (configuration not stated) and give its measured logD.
2.17
